The reported measurements were obtained from the Human Domainome abundance scans (Beltran et al. 2025).

B1: Membrane-associated guanylate kinase, WW and PDZ domain-containing protein 2, residues 601 to 682; numbered along this chain, Q86UL8 (parent)
chain: AELMTLTIVKGAQGFGFTIADSPTGQRVKQILDIQGCPGLCEGDLIVEINQQNVQNLSHTEVVDILKDCPIGSETSLIIHRG

# Variants of: B1
# measurementDescription: abundance fitness (aPCA) (normalised: wild type 0, dead -1); higher = more abundant; growth selection in yeast, the domain comes from the species named
# conditionsUsed: Homo sapiens
Criterion: abundance fitness meeting or surpassing -0.1. Met: 1 (yes). Not met: 0 (no).

As a guide, the following entries are already answered.
INSERT INTO assay_data (alteration, classlabel) VALUES
  ('I31H', '0 (no)'),
  ('H59P', '1 (yes)'),
  ('P70A', '0 (no)'),
  ('R81V', '0 (no)'),
  ('I65L', '1 (yes)');

Task item: Threshold query (abundance fitness >= -0.1) on D64Y
Reply: 1 (yes)

Task item: Now this one: D44N
Reply: 0 (no)

Task item: Now this one: Q55E
Reply: 1 (yes)

Task item: Now this one: H80G
Reply: 1 (yes)

Task item: Now this one: F17M
Reply: 0 (no)

Task item: Now this one: G82T
Reply: 1 (yes)

Task item: Now this one: K29H
Reply: 1 (yes)

Task item: Now this one: N53M
Reply: 1 (yes)

Task item: Now this one: G43K
Reply: 1 (yes)
